Experimental target: XOD (xanthine oxidase) enzyme (Sigma, derived from milk) (Bos taurus)
Assay: XOD enzyme activity inhibition (XOD enzyme activity detection kit, uric acid absorption at 295 nm)
Setup conditions: IC50(M), half-inhibitory concentration on XOD, Table 5, molar
No end group written: not given here.
Value type: IC50 (M)

HDLPLPLPE [Peptide S3] = 5.82e-05
TGPLGPSPGP [Peptide S2] = 0.000125
VPSGPLGPEGPR [Peptide S1] = 0.00275
DNLPPLPK [Peptide S4] = 6.72e-05

* * *

Consider the following sequences and their measured pIC50 readings.
Experimental target: XOD (xanthine oxidase) enzyme (Sigma, derived from milk) (Bos taurus, UniProt P80457)
Sequence (P80457 whole entry): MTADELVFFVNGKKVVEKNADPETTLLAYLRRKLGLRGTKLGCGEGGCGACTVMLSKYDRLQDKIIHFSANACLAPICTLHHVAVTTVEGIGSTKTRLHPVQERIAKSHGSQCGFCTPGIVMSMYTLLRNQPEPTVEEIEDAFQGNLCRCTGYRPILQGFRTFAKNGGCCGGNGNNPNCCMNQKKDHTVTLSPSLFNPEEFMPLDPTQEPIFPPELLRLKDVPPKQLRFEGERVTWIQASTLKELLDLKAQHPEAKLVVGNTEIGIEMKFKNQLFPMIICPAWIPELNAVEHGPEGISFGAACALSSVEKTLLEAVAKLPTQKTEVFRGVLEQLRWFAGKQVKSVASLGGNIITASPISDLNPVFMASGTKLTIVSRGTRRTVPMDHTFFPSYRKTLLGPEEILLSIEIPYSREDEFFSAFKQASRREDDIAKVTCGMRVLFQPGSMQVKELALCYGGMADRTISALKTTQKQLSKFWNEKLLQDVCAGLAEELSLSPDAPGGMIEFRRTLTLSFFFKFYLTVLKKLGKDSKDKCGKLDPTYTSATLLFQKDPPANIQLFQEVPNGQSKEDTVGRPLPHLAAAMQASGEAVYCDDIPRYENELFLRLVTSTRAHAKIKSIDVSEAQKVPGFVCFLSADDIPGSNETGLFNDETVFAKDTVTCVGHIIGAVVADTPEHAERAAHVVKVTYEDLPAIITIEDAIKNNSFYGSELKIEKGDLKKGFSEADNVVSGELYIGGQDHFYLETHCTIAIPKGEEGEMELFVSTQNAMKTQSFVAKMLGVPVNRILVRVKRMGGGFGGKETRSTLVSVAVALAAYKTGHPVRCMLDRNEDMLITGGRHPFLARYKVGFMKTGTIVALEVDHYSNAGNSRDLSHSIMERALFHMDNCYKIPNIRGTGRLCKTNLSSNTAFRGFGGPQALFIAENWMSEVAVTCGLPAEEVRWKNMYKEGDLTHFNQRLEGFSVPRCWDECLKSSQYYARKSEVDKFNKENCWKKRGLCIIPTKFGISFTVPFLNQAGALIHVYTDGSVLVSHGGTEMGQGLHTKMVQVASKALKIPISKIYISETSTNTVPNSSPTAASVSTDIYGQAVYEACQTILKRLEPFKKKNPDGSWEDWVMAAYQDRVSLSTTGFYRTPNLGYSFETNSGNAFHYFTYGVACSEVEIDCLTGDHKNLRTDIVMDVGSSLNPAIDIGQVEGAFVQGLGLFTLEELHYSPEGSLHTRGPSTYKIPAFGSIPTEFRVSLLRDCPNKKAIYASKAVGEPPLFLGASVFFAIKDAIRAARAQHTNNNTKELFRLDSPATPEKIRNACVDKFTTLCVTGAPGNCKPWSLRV
Assay: XOD enzyme activity inhibition (XOD enzyme activity detection kit, uric acid absorption at 295 nm)
Setup conditions: half-inhibitory concentration on XOD
pIC50: −log10 of the molar value. No end group written: not given here.
Value type: pIC50

TGPLGPSPGP [Peptide S2] = 3.90
DNLPPLPK [Peptide S4] = 4.17
HDLPLPLPE [Peptide S3] = 4.23
